// Euclidean distance lookup, one value per entry
test system: DU145; test: Euclidean distance of Cell Painting phenotypic profile (signed KS, 77 features) to DMSO centroid (dimensionless distance); 5 or 10 uM (library dependent); higher = stronger phenotypic change vs DMSO (phenoactivity); conditions: 48 h
Structures can show the parent of a compound that is named as a salt.
QUANTITY_MEASURED: Euclidean distance

>>> observed("CCOC(=O)c1c(CSc2ccccc2)n(C)c2cc(Br)c(O)c(CN(C)C)c12 [Arbidol HCl]")
2.16
>>> observed("CCCCCCCCc1ccc(CCC(N)(CO)CO)cc1")
5.79
>>> observed("O=C(NNc1nc2cc(F)ccc2n2cccc12)c1cnccn1")
2.25
>>> observed("CC[C@H](C)C(=O)O[C@H]1CCC=C2C=C[C@H](C)[C@H](CC[C@@H]3C[C@@H](O)CC(=O)O3)[C@H]21")
0.707
>>> observed("N#Cc1cnc(Nc2cc(NC[C@H]3CNCCO3)c(C(F)(F)F)cn2)cn1")
2.89
>>> observed("O=C1CN(/N=C/c2ccc(-c3ccc([N+](=O)[O-])cc3)o2)C(=O)N1 [Dantrolene sodium]")
1.37
>>> observed("NC[C@@H]1O[C@H](O[C@H]2[C@@H](O)[C@H](O[C@@H]3[C@@H](O)[C@H](N)C[C@H](N)[C@H]3O[C@H]3O[C@H](CO)[C@@H](O)[C@H](O)[C@H]3N)O[C@@H]2CO)[C@H](N)[C@@H](O)[C@@H]1O [Paromomycin Sulfate]")
0.88
>>> observed("CC(O)(P(=O)(O)O)P(=O)(O)O [Etidronate]")
1.1
>>> observed("O=C(O)Cc1ccccc1Nc1c(Cl)cccc1Cl [Diclofenac Sodium]")
0.729
>>> observed("Nc1ccc(S(=O)(=O)NC(=O)c2ccccc2)cc1 [Sulfabenzamide]")
0.77
>>> observed("CC(=O)Nc1nnc(S(N)(=O)=O)s1 [Acetazolamide]")
0.642
>>> observed("CO[C@H]1/C=C\\C=C(/C)C(=O)NC2=CC(=O)C(NCCN(C)C)=C(C[C@@H](C)C[C@H](OC)[C@H](O)[C@@H](C)/C=C(\\C)[C@@H]1OC(N)=O)C2=O")
4.03
>>> observed("COC(=O)C1=CO[C@@H](O[C@@H]2O[C@H](CO)[C@@H](O)[C@H](O)[C@H]2O)[C@@H]2C(CO)=CC[C@H]12 [Geniposide]")
1.03
>>> observed("CC(C)(C)c1ccc(C(O)CCCN2CCC(C(O)(c3ccccc3)c3ccccc3)CC2)cc1 (stereo unspecified)")
1.53
>>> observed("Nc1ncn([C@@H]2O[C@H](CO)[C@@H](O)[C@H]2O)c(=O)n1")
1.92
>>> observed("C/C(=C\\C(=O)OCCCCCCCCC(=O)O)C[C@@H]1OC[C@H](C[C@@H]2O[C@H]2[C@@H](C)[C@H](C)O)[C@@H](O)[C@H]1O")
0.636
>>> observed("COc1ccccc1OCC(O)CN1CCN(CC(=O)Nc2c(C)cccc2C)CC1 (stereo unspecified)")
0.507
>>> observed("C=CC(=O)Nc1ccc2ncnc(Nc3ccc(OCc4cccc(F)c4)c(Cl)c3)c2c1")
1.99
>>> observed("COc1cc(/C=C/C(=O)CC(=O)/C=C/c2ccc(O)c(OC)c2)ccc1O")
1.22
>>> observed("CC(C)c1c(C(=O)Nc2ccccc2)c(-c2ccccc2)c(-c2ccc(F)cc2)n1CC[C@@H](O)C[C@@H](O)CC(=O)O [atorvastatin]")
3.44
>>> observed("C[C@@H](O)[C@H]1C(=O)N2C(C(=O)O)=C([C@H]3CCCO3)S[C@H]12 [Faropenem Sodium]")
1
>>> observed("Nc1cccc2c1CN(C1CCC(=O)NC1=O)C2=O (stereo unspecified) [Lenalidomide (CC-5013)]")
0.79
>>> observed("Cc1cccc(-c2[nH]c(CNc3ccccc3F)nc2-c2ccc3ncnn3c2)n1")
1.41
>>> observed("c1ccc2c(c1)CCCC2C1=NCCN1 (stereo unspecified)")
0.804
>>> observed("CN(C)c1cc(CNCC(C)(C)C)c(O)c2c1C[C@H]1C[C@H]3[C@H](N(C)C)C(O)=C(C(N)=O)C(=O)[C@@]3(O)C(O)=C1C2=O [Omadacycline tosylate]")
1.21
>>> observed("CCN(CC)CCNC(=O)c1ccc(N)cc1 [Procainamide HCl]")
0.74
